The compounds listed here are annotated with their GI50.
# Test system: OVCAR3 cells
# assay-details: MTT proliferation assay, OVCAR3;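 also: compound given as an 8- or 10-point series, one day after plating, with exposure covering roughly 3-4 cell doublings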
# Type: cell-based
# experimental-setup: 5 days compound exposure, 1:3 serial dilution starting at 10 μM
*1 amine or outer side, *2 acyl side, *3 side chain or, on linkers, in order; H or OH if unused. Where a SMILES comes first, the peptide text is derived from it. Bridges are numbered along the chain shown (N, C = ends). [ ]: non-standard residue; d: D form. The star is where a group is joined. X10 = CC(C)C(=O)N1[C@H]2COC[C@@H]1C=C(c1ccc(Cl)cc1C[C@@H](C(=O)[*:2])N(C)[*:1])C2; X108 = CN([C@@H](Cc1cc(Cl)ccc1-c1ccc(CN2CCOCC2)cc1)C(=O)[*:2])[*:1]; NMehhhLys(Me) = CN([C@@H](CCCCCCCN(C)[*:3])C(=O)[*:2])[*:1]; NMe(hhhLys) = CN([C@@H](CCCCCCCN[*:3])C(=O)[*:2])[*:1]; cBuCO(3,3-F2-1-CF3) = O=C(C1(C(F)(F)F)CC(F)(F)C1)*; Pro(trans-4-F) = O=C(O)[C@@H]1C[C@@H](F)CN1; Gly(cPr) = N[C@H](C(=O)O)C1CC1
observation-type: GI50 (nM)

# compound, observation-type, unit-string, test-result
rows = [
    ("CC(C)C[C@@H]1NC(=O)[C@@H](N(C)C(=O)[C@@H](NC(=O)[C@@H]2C[C@@H](F)CN2C(=O)C2(C(F)(F)F)CC(F)(F)C2)C2CC2)CCCCCCCN(C)C(=O)[C@H](Cc2cc(Cl)ccc2-c2ccc(CN3CCOCC3)cc2)N(C)C1=O [Example 359] ({cBuCO(3,3-F2-1-CF3)}-[Pro(trans-4-F)][Gly(cPr)][NMehhhLys(Me)]L[X108]; lactam 3-C)", "GI50", "nM", 10),
    ("CC(C)C[C@@H]1NC(=O)[C@@H](N(C)C(=O)[C@@H](NC(=O)[C@@H]2C[C@@H](F)CN2C(=O)C2(C(F)(F)F)CC(F)(F)C2)C2CC2)CCCCCCCNC(=O)[C@H](Cc2cc(Cl)ccc2C2=C[C@H]3COC[C@@H](C2)N3C(=O)C(C)C)N(C)C1=O [Example 327] ({cBuCO(3,3-F2-1-CF3)}-[Pro(trans-4-F)][Gly(cPr)][NMe(hhhLys)]L[X10]; lactam 3-C)", "GI50", "nM", 10),
]
